- Target desc: wild-type NS5B (amino acids 1-570; GT-1b) (Hepatitis C virus genotype 1b, UniProt Q9WMX2)
- Construct: 21 residue C-terminal truncated forms of the NS5b protein (amino acids 1-570); GT-1b; made in house
- Protocol details: Surface Plasmon Resonance binding affinity to wild-type NS5B
- Set-up: species or system HCV GT-1b
- Cond: SPR, Biacore T100, 25° C., wild-type NS5B; read-out: Wild-type KD
- Text: Compounds with minimal fold difference in binding affinity may have particular clinical utility. In vitro studies with NS5B employed soluble, 21 residue C-terminal truncated forms of the NS5b protein (amino acids 1-570; GT-1b; wild-type and mutant M423T. See Hung, M., Wang, R., Liu, X.: ‘Preparation of HCV NS3 and NS5B to support small molecule drug discovery’, Current Protocols in Pharmacology, 2011, in press). […]
pKd: −log10 of the molar value.
Property: pKd; scope: individual molecules
Readout label: pKd

| Molecule | Value measured |
| --- | --- |
| CC1=CC[C@@H](C(=O)N(c2cc(C#CC(C)(C)C)sc2C(=O)O)C(C)C)[C@H](C)C1 (single isomer, unassigned) | 8.55 |
| CC1=CC[C@H](C(=O)N(c2cc(C#CC(C)(C)C)sc2C(=O)O)C(C)C)CC1 | 8.89 |
| CC1=CC[C@H](C(=O)N(c2cc(C#CC(C)(C)C)sc2C(=O)O)C(C)C)[C@H](C)C1 (single isomer, unassigned) | 8.85 |
| CC1=CC[C@H](C(=O)N(c2cc(C#CC(C)(C)C)sc2C(=O)O)C(C)C)[C@@H](C)C1 | 9.15 |
| CC(C)N(C(=O)[C@@H]1CC[C@@H](C)C[C@H]1C)c1cc(C#CC(C)(C)C)sc1C(=O)O [Comparative example 4, reference compound] | 8.44 |
